Target: HDAC1 (Homo sapiens (Human))
Sequence (Q13547 whole entry, species assumed): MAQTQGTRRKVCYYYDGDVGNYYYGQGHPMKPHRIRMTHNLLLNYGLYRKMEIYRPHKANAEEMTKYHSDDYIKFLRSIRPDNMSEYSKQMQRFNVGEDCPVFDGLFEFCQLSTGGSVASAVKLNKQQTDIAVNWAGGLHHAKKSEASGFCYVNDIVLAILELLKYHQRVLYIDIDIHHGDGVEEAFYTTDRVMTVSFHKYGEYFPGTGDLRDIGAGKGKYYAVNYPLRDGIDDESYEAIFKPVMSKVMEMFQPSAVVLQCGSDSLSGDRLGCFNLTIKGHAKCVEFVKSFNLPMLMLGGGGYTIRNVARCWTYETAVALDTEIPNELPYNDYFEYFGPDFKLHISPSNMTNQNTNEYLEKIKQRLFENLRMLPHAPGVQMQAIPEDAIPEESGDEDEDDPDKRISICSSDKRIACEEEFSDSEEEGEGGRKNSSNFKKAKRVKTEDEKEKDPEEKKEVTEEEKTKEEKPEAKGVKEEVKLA
readout_type: pIC50
Value format note: pIC50 is -log10 of concentration (mol/L); just state the number.

Lookup: pIC50 / HDAC1 (Homo sapiens (Human)) / CC(=O)Nc1ccc(C(=O)Nc2ccc(F)cc2N)cc1
5.66

----------
Target: HDAC3 (Homo sapiens (Human))
Sequence (O15379 whole entry, species assumed): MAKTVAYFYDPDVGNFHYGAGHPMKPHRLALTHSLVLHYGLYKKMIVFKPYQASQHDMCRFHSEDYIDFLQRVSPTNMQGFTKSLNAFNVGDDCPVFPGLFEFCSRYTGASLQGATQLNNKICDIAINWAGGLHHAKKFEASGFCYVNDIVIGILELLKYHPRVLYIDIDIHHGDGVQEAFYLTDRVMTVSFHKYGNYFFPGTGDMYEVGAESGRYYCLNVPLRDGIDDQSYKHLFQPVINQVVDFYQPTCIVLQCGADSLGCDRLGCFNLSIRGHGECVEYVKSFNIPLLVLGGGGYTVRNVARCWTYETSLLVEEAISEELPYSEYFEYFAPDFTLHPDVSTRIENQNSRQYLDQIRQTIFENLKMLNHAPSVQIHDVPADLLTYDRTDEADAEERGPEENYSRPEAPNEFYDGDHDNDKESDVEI
Sequence (Q9Y618 395-489 partner, species assumed): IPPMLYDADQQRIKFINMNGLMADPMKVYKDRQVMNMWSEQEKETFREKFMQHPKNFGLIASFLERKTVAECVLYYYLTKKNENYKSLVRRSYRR
readout_type: pIC50
Please keep in mind that pIC50 is minus log10 of the molar concentration; only the number is needed.

// returns reported pIC50 for input CC(=O)Nc1ccc(C(=O)Nc2ccc(F)cc2N)cc1 [Compound I-1]
7.21
